- SYSTEM_UNDER_TEST: hGYS1 enzyme (recombinant hGYS1/GN1 protein) (Homo sapiens (Human), UniProt P13807)
- Sequence (P13807 whole entry): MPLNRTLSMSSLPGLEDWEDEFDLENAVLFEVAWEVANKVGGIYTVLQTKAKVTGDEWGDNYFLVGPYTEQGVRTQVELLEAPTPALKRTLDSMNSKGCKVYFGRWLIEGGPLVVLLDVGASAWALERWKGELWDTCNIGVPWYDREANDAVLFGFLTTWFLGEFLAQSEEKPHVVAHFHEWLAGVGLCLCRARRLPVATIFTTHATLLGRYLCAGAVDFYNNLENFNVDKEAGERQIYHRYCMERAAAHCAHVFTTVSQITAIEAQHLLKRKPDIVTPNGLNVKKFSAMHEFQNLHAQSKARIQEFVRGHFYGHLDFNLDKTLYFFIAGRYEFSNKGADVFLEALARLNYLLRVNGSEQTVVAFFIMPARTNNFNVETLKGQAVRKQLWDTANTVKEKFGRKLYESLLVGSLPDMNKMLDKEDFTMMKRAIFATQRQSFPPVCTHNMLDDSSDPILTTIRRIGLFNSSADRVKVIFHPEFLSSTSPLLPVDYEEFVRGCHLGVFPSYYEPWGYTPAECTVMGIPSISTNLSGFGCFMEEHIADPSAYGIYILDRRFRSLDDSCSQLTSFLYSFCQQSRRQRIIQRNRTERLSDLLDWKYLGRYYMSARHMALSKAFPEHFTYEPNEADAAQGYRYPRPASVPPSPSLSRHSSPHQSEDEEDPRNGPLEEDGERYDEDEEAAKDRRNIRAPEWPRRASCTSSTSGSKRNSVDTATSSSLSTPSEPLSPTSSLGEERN
- Sequence (P46976 whole entry partner): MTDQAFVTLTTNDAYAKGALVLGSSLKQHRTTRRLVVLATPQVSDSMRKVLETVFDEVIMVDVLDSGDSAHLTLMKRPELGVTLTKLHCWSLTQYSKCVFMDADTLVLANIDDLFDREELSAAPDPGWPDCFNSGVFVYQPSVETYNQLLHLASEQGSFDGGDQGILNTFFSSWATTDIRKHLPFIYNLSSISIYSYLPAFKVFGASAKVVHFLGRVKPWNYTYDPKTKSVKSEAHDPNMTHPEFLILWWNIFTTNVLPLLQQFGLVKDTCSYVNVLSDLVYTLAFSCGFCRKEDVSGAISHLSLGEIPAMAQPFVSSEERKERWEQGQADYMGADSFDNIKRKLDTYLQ
- ASSAY_METHOD_TEXT: GYS1 coupled enzyme assay (PK/LDH)
- Format: biochemical
- TEST_CONDITIONS: hGYS1/GN1 50 nM, UDP-Glucose 0.8 mM, G6P 1 mM; geometric mean of at least 2 runs
pIC50: −log10 of the molar value.
ASSAY_METRIC: pIC50

[P] CN1CCN(C(=O)NCC(=O)N2C[C@H](F)C[C@H]2C(=O)N[C@@H](c2ccccc2)c2ccc(C3CC3)c(F)c2)CC1
[Q] Cc1nnc(CC(=O)N2C[C@H](F)C[C@H]2C(=O)N[C@@H](c2ccccc2)c2ccc(C(C)C)c(F)c2)o1
Prompt: // select label with min value of measured pIC50 from [ P , Q ] Provide the label of your selected option as the answer.
Completion: P

[1] Cc1cc(C(NC(=O)[C@@H]2C[C@@H](F)CN2C(=O)Cc2cnn[nH]2)c2ccccc2)cc(F)c1C(C)C (single isomer, unassigned) [Compound 680]
[2] Cn1c(=O)n(CC(=O)N2C[C@H](F)C[C@H]2C(=O)N[C@@H](c2ccccc2)c2ccc(C3(C)CC3)c(F)c2)c2ccccc21
Prompt: // select label with min value of measured pIC50 from [ 1 , 2 ] Provide the label of your selected option as the answer.
Completion: 2

[A] CC(C)c1ccc([C@@H](NC(=O)[C@@H]2C[C@@H](F)CN2C(=O)Cn2nnnc2C(F)F)c2ccccc2)nc1F
[B] CCn1cc(CC(=O)N2C[C@H](F)C[C@H]2C(=O)N[C@@H](c2ccccc2)c2ccc(C(C)C)c(F)n2)ccc1=O
Prompt: // select label with min value of measured pIC50 from [ A , B ] Provide the label of your selected option as the answer.
Completion: A
(A: 7.92, B: 8.22)

----------
- SYSTEM_UNDER_TEST: hGYS1 enzyme (recombinant hGYS1/GN1 protein) (Homo sapiens (Human), UniProt P13807)
- ASSAY_METHOD_TEXT: GYS1 coupled enzyme assay (PK/LDH)
- TEST_CONDITIONS: hGYS1/GN1 50 nM, UDP-Glucose 0.8 mM, G6P 1 mM; geometric mean of at least 2 runs
pIC50: −log10 of the molar value.
ASSAY_METRIC: pIC50

COMPOUND | ASSAY_METRIC | DATA_VALUE
CC(Oc1cccnc1)C(=O)N1C[C@H](F)C[C@H]1C(=O)N[C@@H](c1ccccc1)c1ccc(C(C)C)cc1 (stereo partly drawn) | pIC50 | 7.11

[A] CC(C)c1ccc([C@@H](NC(=O)[C@@H]2C[C@@H](F)CN2C(=O)C(C)n2ccnn2)c2ccccc2)cc1 (stereo partly drawn)
[B] O=C(N[C@@H](c1ccccc1)c1ccc(C2CC2)c(F)c1)[C@@H]1C[C@@H](F)CN1C(=O)Cc1cccn2c(=O)[nH]nc12
Prompt: // select label with min value of measured pIC50 from [ A , B ] Provide the label of your selected option as the answer.
Completion: A
(A: 6.97, B: 7.17)

----------
- SYSTEM_UNDER_TEST: hGYS1 enzyme (recombinant hGYS1/GN1 protein) (Homo sapiens (Human), UniProt P13807)
- ASSAY_METHOD_TEXT: GYS1 coupled enzyme assay (PK/LDH)
- TEST_CONDITIONS: hGYS1/GN1 50 nM, UDP-Glucose 0.8 mM, G6P 1 mM; geometric mean of at least 2 runs
ASSAY_METRIC: IC50 (nM)

COMPOUND | IC50 / nM
CCOc1ncc(CC(=O)N2C[C@H](F)C[C@H]2C(=O)N[C@@H](c2ccccc2)c2ccc(C3CC(F)(F)C3)c(F)n2)cc1C | 6
Cc1cn(CC(=O)N2C[C@H](F)C[C@H]2C(=O)N[C@@H](c2ccccc2)c2ccc(C3CC(F)(F)C3)cn2)c(=O)[nH]c1=O | 12
O=C(N[C@@H](c1ccccc1)c1ccc(C2CC(F)(F)C2)c(F)n1)[C@@H]1C[C@@H](F)CN1C(=O)Cc1ccc[nH]c1=O | 8
CC(C)c1ccc([C@@H](NC(=O)[C@@H]2C[C@@H](F)CN2C(=O)Cn2ncc(N3CCC3)n2)c2ccccc2)nc1 | 20
O=C(N[C@@H](c1ccccc1)c1ccc(C2CC(F)(F)C2)cn1)[C@@H]1C[C@@H](F)CN1C(=O)CNC(=O)N1CC(F)(F)C1 | 48

[I] O=C(N[C@@H](c1ccccc1)c1ccc(C2CC(F)(F)C2)cn1)[C@@H]1C[C@@H](F)CN1C(=O)Cc1ncco1
[II] Cn1nc(CC(=O)N2C[C@H](F)C[C@H]2C(=O)N[C@@H](c2ccccc2)c2ccc(C3(C)CC3)c(F)n2)c2ccccc21
[III] CC(C)c1ccc(C(NC(=O)[C@@H]2C[C@@H](F)CN2C(=O)Cc2cnn[nH]2)c2ccc(F)cn2)cc1F (single isomer, unassigned)
[IV] Cc1cn(CC(=O)N2C[C@H](F)C[C@H]2C(=O)N[C@H](c2ccccc2)c2ccc(C3(C)CC3)c(F)c2)c(=O)[nH]c1=O
[V] CC(C)c1ccc([C@@H](NC(=O)[C@@H]2C[C@@H](F)CN2C(=O)C(C)(C)c2nnco2)c2ccccc2)cc1F
Prompt: Write the entries in order, lowest recorded IC50 first. Present the labels in the sequence the task asks for.
Completion: II, I, V, IV, III

[A] CCn1cc(CC(=O)N2C[C@H](F)C[C@H]2C(=O)N[C@@H](c2ccccc2)c2ccc(C3CC3)c(F)n2)ccc1=O
[B] Cc1cc(C(NC(=O)[C@@H]2C[C@@H](F)CN2C(=O)Cc2cnn[nH]2)c2ccccc2)cc(F)c1C(C)C (single isomer, unassigned) [Compound 678]
Prompt: // select label with min value of measured IC50 from [ A , B ] Provide the label of your selected option as the answer.
Completion: A
(A: 20 nM, B: 1060 nM)
